Target Or System: AGE-BSA (Bos taurus)
Construct: Bovine serum albumin (fraction V) (BSA); from tissue; host or cells: bovine serum (fraction V albumin)
Sequence (P02769 25-607): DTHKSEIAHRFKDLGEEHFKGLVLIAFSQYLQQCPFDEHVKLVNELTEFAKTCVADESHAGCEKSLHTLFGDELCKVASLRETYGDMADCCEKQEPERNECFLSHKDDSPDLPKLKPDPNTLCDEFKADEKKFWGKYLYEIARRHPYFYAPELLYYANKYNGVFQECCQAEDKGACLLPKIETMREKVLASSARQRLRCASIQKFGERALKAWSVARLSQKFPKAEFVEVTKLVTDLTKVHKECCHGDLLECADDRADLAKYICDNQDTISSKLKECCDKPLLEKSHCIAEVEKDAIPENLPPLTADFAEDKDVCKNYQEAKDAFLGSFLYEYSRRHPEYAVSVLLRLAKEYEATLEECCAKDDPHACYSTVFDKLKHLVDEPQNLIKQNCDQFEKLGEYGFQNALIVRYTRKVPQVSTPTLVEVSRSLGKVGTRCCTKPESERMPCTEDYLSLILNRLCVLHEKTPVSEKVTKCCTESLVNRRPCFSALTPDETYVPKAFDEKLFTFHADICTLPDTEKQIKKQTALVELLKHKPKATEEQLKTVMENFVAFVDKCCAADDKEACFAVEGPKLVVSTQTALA
Experimental Protocol: In-vitro screening for AGE-breaking activity (ELISA on 16 weeks AGE-BSA)
Assay type: biochemical, bovine
Measurement Conditions: Concentration 10 mM; 10µg/ml 16 weeks AGE-BSA, 37°C, 24 hours
Experimental Endpoint: % breakage of AGE-BSA crosslinks at 10000 µM (%)
Supply the numeric figure in %, leaving out any unit text.

In the examples that follow, each entry is paired with its recorded % breakage of AGE-BSA crosslinks at 10000 µM.
>  <Chemical Structure>
CS(=O)(=O)NNC(=O)c1ccc[n+](CC(=O)c2cccs2)c1

>  <Result Number>
17.5

$$$$
>  <Chemical Structure>
Cc1ccc(C(=O)C[n+]2cccc(C(=O)NNC(=O)c3ccc[n+](CC(=O)c4ccc(C)s4)c3)c2)s1

>  <Result Number>
82

$$$$
>  <Chemical Structure>
COCCNC(=O)c1cc(Br)c[n+](CC(=O)c2cccs2)c1

>  <Result Number>
32.4

$$$$

input: Check the records and state % breakage of AGE-BSA crosslinks at 10000 µM for CCOC(=O)NNC(=O)c1ccc[n+](CC(=O)c2cccs2)c1
output: 33.4
